B1: PTPRD (parent)
chain: LTKLREMGREKCHQYWPAERSARY

# Variants of: B1
# protocolSummary: protein stability index of a GFP-peptide fusion (GPS, HEK-293T) (PSI 1-6); higher = more stable;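 note: lentivirally expressed fusions sorted by FACS into six bins by GFP to DsRed ratio, PSI derived from sequencing read proportions per bin multiplied by bin number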
# conditionContext: c terminus: a fixed tail appended
endpoint: protein stability index
When you answer, write just the number.

1) LTKLREMGREKCHQYWPYERSARY [A18Y]
1.97
2) LTRLREMGREKCHQYWPAERSARY [K3R]
2.43
3) LTKLREMVREKCHQYWPAERSARY [G8V]
2.58
4) LTDLREMGREKCHQYWPAERSARY [K3D]
2.9

Shift focus to the following entry.
// query Data request, read-out protein stability index, for LTKLREMGREKRHQYWPAERSARY [C12R]
// result 2.51
